biological target: Zap-70 (Homo sapiens, UniProt P43403); construct: Kinases are expressed as either kinase domains or full length constructs; made in house; experiment: Kinase inhibition assay (33P transfer), Zap-70; assay type: biochemical; details: Table 3; read-out: Zap-1
Sequence (P43403 whole entry, species assumed, the tested form may be a part): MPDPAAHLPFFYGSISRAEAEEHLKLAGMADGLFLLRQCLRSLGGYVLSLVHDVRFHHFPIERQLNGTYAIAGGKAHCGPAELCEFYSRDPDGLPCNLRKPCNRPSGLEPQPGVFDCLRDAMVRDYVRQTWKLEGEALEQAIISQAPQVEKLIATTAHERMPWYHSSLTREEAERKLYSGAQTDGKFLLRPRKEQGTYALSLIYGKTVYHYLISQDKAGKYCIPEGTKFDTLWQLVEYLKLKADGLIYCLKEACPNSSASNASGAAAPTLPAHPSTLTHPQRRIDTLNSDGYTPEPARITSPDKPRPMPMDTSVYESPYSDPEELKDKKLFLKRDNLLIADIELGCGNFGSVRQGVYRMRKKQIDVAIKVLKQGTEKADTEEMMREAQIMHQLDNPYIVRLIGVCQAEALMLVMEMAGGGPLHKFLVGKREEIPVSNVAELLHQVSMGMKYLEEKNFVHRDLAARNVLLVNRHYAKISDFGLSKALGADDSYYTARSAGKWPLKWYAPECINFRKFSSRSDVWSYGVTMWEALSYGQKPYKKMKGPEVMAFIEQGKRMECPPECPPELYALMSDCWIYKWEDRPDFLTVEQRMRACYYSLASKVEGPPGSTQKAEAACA
pIC50: −log10 of the molar value.
measuredProperty: pIC50

Sample records with pIC50:
{"molecule": "Nc1ncnc(Nc2cccc(C(F)(F)F)c2)n1 [Compound 1015]", "val": "< 4.75"}
{"molecule": "C#Cc1cccc(Nc2ncnc(Nc3cc(OC)c(OC)c(OC)c3)n2)c1 [Compound 74]", "val": "< 4.92"}

Input COc1ccc(Sc2ncnc(Nc3cc(OC)c(OC)c(OC)c3)n2)cc1 [Compound 175] . Output pIC50: < 4.95

Quick note, pIC50 for COc1cc(Nc2ncnc(-n3c(NCc4ccccn4)nc4ccccc43)n2)cc(OC)c1OC [Compound 414] landed at < 5.03

pIC50 reading for O=C(Nc1ccc(Nc2ncnc(-n3c(=O)[nH]c4ccccc43)n2)cc1)O[C@@H]1CCOC1 [Compound 454] : < 4.98

Record COc1cc(Nc2ncnc(Nc3cc(C)nn3C)n2)cc(OC)c1OC [Compound 393] , field pIC50: < 4.92

Form: molecule = NC(=O)c1cccc(Nc2ncnc(-c3ccccc3)n2)c1 [Compound 151] ; pIC50 = < 4.81

# pIC50 (molecule: COc1cc(Nc2ncnc(-n3c(NCc4ccccc4)nc4ccccc43)n2)cc(OC)c1OC [Compound 371] ) is < 5.03

Sample COc1cc(Nc2ncnc(-n3ccc4cc(F)ccc43)n2)cc(OC)c1OC [Compound 441] ; pIC50 observed: < 4.94

Short answer for c1ccc(COc2cccc(Nc3ncnc(-c4cccs4)n3)c2)cc1 [Compound 361] : pIC50 was < 4.90
